Where do the numbers come from? From paper PMC3220703.

test: Pharmacokinetics: plasma AUC(0-∞) in sham-operated and 5/6N rats (HPLC-MS/MS); assay type: in vivo, rat; settings: rat, plasma, po, 7 umol/kg, 5/6N rats; 7 µmol/kg oral once daily, day 4; mean±SEM
measured_attribute: AUC(0-inf) (µM·h)

(A) N[C@@H](CC(=O)N1CCn2c(nnc2C(F)(F)F)C1)Cc1cc(F)c(F)cc1F
(B) CC#CCn1c(N2CCC[C@@H](N)C2)nc2c1c(=O)n(Cc1nc(C)c3ccccc3n1)c(=O)n2C
(C) Cn1c(=O)cc(N2CCC[C@@H](N)C2)n(Cc2ccccc2C#N)c1=O
Request: In ascending order of recorded AUC(0-inf), list the compounds from the set above. Provide your answer as the labels ordered per the instruction.
Response: B, C, A
(B: 1.25 µM·h, C: 2.44 µM·h, A: 6.24 µM·h)

---

assay: Pharmacokinetics: plasma AUC(0-∞) in sham-operated and 5/6N rats (HPLC-MS/MS); type: in vivo, rat; conditions: rat, plasma, po, 7 umol/kg, sham-operated rats; 7 µmol/kg oral once daily, day 4; mean±SEM
measured_attribute: AUC(0-inf) (µM·h)

structure: CC#CCn1c(N2CCC[C@@H](N)C2)nc2c1c(=O)n(Cc1nc(C)c3ccccc3n1)c(=O)n2C
measured_attribute: AUC(0-inf)
observed_result: 0.748

(A) Cn1c(=O)cc(N2CCC[C@@H](N)C2)n(Cc2ccccc2C#N)c1=O
(B) N[C@@H](CC(=O)N1CCn2c(nnc2C(F)(F)F)C1)Cc1cc(F)c(F)cc1F
Request: Which entry shows the lesser value of AUC(0-inf) here, A or B ? Record your answer as the label of the chosen record.
Response: A
(A: 1.77 µM·h, B: 3.69 µM·h)

---

Test: Pharmacokinetics: plasma AUC(0-∞) in sham-operated and 5/6N rats (HPLC-MS/MS)
Type: in vivo, rat
Details: rat, plasma, po, 0.5 umol/kg, sham-operated rats; 0.5 µmol/kg oral once daily, day 4; mean±SEM
Experimental: Sham-operated rats were divided into four control groups (N = 5–6 rats per group) in the same manner. Chromatography for all assays was achieved on a Phenomenex Luna Phenyl-Hexyl 100A, 3 µm, 50×2 mm analytical HPLC column with gradient elution. The analytes were detected and quantified by HPLC-MS/MS using electrospray ionization in the positive ion mode. Pharmacokinetic analysis was performed using non-compartmental methods with ToxKin V 3.5 (LogicaCMG ITS AG, Switzerland). […]
measured_attribute: AUC(0-inf) (µM·h)
Use µM·h as the unit, but write only the number.

Request: Item CC#CCn1c(N2CCC[C@@H](N)C2)nc2c1c(=O)n(Cc1nc(C)c3ccccc3n1)c(=O)n2C has what recorded AUC(0-inf)?
Response: 0.267
